Target: T1, EsCas13d, nuclease-dead (Eubacterium siraeum, UniProt B0MS50, R295A;H300A;R849A;H854A)
T1 sequence: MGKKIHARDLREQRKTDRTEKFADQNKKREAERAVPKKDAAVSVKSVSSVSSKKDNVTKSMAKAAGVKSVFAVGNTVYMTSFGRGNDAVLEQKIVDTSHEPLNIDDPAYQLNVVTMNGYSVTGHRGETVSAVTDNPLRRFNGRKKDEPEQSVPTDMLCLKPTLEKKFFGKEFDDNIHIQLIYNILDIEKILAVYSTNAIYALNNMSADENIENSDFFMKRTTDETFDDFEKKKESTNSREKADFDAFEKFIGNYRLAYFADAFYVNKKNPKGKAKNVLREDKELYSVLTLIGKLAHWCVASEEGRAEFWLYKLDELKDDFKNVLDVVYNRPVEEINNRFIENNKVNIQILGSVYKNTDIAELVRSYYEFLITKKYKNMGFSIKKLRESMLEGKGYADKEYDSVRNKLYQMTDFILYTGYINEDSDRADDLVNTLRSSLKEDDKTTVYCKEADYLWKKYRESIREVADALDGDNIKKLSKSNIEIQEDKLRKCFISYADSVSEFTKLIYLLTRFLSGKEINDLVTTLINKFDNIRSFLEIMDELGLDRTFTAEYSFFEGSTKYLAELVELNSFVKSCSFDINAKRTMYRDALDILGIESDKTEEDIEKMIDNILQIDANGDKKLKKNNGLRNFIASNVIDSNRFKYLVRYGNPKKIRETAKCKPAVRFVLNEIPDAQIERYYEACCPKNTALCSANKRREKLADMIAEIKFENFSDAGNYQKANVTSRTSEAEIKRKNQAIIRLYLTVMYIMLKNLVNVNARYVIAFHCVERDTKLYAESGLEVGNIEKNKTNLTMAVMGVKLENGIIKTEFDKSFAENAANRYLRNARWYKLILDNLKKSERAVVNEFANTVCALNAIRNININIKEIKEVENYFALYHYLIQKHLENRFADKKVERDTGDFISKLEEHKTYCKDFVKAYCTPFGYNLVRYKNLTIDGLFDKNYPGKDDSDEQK
Assay: crRNA (strand 1, pre-loaded); Mg2+; 40 mM Tris-HCl pH 7.5, 150 mM NaCl, 6 mM MgCl2, 1 mM DTT, 0.1% Tween-20, 0.2 mg/ml BSA; 25 C; 10 min per concentration, then washed
Conditions: tags: His6-TwinStrep-SUMO cleaved; N-terminal SNAP kept (SNAP-Surface 488); label: 3' end held by stalled T7 RNA polymerase
# strict inequality: Kd < 20 nM yields met, everything else yields not met

Binder: target 1 MT 5'PFS GGC 3'PFS AAA (mixed) RNA 1: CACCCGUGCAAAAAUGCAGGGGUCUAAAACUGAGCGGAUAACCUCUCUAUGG RNA 2: GGGAAUGGAUCCACAUCUACGAAUUCGGCCCAUAGAGAGGUUAUCCGCUCAAAAAGAUCGGAAGAGCACACGU
Class Name: not met
//
Binder: target 1 insG 3' of 19,insG 3' of 3 (mixed) RNA 1: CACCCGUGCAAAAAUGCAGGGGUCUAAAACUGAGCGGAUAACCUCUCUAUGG RNA 2: GGGAAUGGAUCCACAUCUACGAAUUCGUACCAUGAGAGAGGUUAUCCGCUGCACCGAGAUCGGAAGAGCACACGU
Class Name: not met
//
Binder: target 1 C7U,A16C (mixed) RNA 1: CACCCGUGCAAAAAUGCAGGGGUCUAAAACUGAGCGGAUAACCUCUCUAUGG RNA 2: GGGAAUGGAUCCACAUCUACGAAUUCGUACCAUAGCGAGGUUAUUCGCUCACCGAGAUCGGAAGAGCACACGU
Class Name: not met
//
Binder: target 3 G4A,A18G (mixed) RNA 1: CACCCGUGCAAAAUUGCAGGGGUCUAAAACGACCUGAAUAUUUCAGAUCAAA RNA 2: GGGAAUGGAUCCACAUCUACGAAUUCGUUUUUGGUCUGAAAUAUUCAAGUCUGCAGAUCGGAAGAGCACACGU
Class Name: met
//
Binder: target 1 MT 5'PFS GUA 3'PFS AAU (mixed) RNA 1: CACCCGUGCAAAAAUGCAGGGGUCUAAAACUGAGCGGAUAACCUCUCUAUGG RNA 2: GGGAAUGGAUCCACAUCUACGAAUUCGUACCAUAGAGAGGUUAUCCGCUCAAAUAGAUCGGAAGAGCACACGU
Class Name: met
//
Binder: target 2 MT 5'PFS CGA 3'PFS AUU (mixed) RNA 1: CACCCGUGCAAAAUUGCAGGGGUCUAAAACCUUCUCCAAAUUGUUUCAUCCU RNA 2: GGGAAUGGAUCCACAUCUACGAAUUCCGAAGGAUGAAACAAUUUGGAGAAGAUUAGAUCGGAAGAGCACACGU
Class Name: met
//
Binder: target 1 del15,del20 (mixed) RNA 1: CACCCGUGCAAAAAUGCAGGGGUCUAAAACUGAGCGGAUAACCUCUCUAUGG RNA 2: GGGAAUGGAUCCACAUCUACGAAUUCGUACCUAGAAGGUUAUCCGCUCACCGAGAUCGGAAGAGCACACGU
Class Name: not met
//
Binder: target 1 insC 3' of 18,insU 3' of 18 (mixed) RNA 1: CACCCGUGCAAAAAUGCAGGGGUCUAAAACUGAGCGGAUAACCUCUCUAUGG RNA 2: GGGAAUGGAUCCACAUCUACGAAUUCGUACCAUACUGAGAGGUUAUCCGCUCACCGAGAUCGGAAGAGCACACGU
Class Name: not met
